The measurements presented in this section are drawn from ChEMBL document CHEMBL1961873.

Reported inhibition values follow for various molecules
Biological target: MAP kinase-activated protein kinase 3 (Homo sapiens) (UniProt Q16644)
Sequence (Q16644 whole entry, looked up): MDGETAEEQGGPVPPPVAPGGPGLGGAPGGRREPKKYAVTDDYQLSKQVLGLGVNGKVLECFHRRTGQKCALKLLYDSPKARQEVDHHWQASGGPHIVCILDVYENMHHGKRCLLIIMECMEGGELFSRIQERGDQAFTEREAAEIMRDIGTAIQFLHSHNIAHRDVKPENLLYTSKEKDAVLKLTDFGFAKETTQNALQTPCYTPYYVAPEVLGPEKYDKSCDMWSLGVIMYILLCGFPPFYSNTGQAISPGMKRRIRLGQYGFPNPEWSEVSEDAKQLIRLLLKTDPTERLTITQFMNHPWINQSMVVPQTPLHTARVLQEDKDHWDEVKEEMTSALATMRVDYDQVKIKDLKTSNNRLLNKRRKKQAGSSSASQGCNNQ
Conditions: at 1 µM
Description: GSK_PKIS: MAPKAPK3 mean inhibition at 1 uM [Nanosyn]
endpoint: inhibition (%)

                                smiles_data  value
0  FC(F)(F)c1cccc(-c2nn3ncccc3c2-c2ccnc(Nc3ccc4c(c3)OCCO4)n2)c1   31.9
1  COc1ccc(-c2cc(-c3c[nH]nc3-c3ccccn3)ccn2)cc1     14
2        Fc1ccc(-c2nn3ccccc3c2-c2ccncc2)cc1   28.4

* * *

Target: Cyclin-dependent kinase 2 (Homo sapiens);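 further: mean inhibition of the CDK2–cyclin A kinase complex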
Details: at 1 µM
endpoint: inhibition

>>> df
                                smiles_data                            assayed_system    endpoint  value
0  O=S(=O)(CCNCc1ccc(-c2ccc3ncnc(Nc4ccc(OCc5cccc(F)c5)c(Cl)c4)c3c2)o1)c1ccccc1  Cyclin-dependent kinase 2 (Homo sapiens)  inhibition  2.63%
1  CNC(=O)c1cc(-c2ccc(F)cc2)cc(-c2ccc(S(=O)(=O)N3CCCC3)cc2)c1N  Cyclin-dependent kinase 2 (Homo sapiens)  inhibition  1.91%
2  COc1cc(Nc2nccc(Nc3ccc4c(C)n[nH]c4c3)n2)cc(OC)c1OC  Cyclin-dependent kinase 2 (Homo sapiens)  inhibition  3.22%
3   NS(=O)(=O)c1ccc(Nc2ncc(-c3ccccc3)o2)cc1  Cyclin-dependent kinase 2 (Homo sapiens)  inhibition   109%
4  Cc1ccc2c(-c3ccnc(Nc4ccccc4)n3)c(-c3ccc(F)cc3)nn2n1  Cyclin-dependent kinase 2 (Homo sapiens)  inhibition  0.79%
